# ASSAY_SYSTEM: FKBP (Homo sapiens, UniProt P62942)
# Sequence (P62942 whole entry): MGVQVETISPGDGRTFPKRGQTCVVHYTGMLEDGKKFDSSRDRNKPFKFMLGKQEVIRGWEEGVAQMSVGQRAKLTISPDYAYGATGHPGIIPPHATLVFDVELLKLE
# METHOD: PPIase Inhibition Assay
# Format: biochemical
# CONDITION_PARAMETERS: inhibition of PPIase activity of FKBP, substrate Succinyl-Ala-Phe-Pro-Phe-para-nitroanilide
pIC50: −log10 of the molar value.
Mark Y for reported pIC50 of 6 or greater; mark N for anything smaller.

# COMPOUND, LABEL_CLASS
measured = [
    ("CCC(C)[C@@H](CN1CCC[C@H]1C(=O)N[C@H](C(=O)NCc1ccccc1)[C@@H](C)CC)NC(=O)[C@H](CC1CCCCC1)NC(=O)OC(C)(C)C (stereo partly drawn)", "Y"),
    ("CC[C@H](C)[C@@H](CN1CCCC[C@H]1C(=O)N[C@H](C(=O)NCc1ccccc1)[C@@H](C)OCc1ccccc1)NC(=O)OC(C)(C)C", "N"),
    ("CC[C@H](C)[C@H](NC(=O)[C@@H]1CCCN1C[C@H](CC(C)C)NC(=O)[C@@H](N)CC(N)=O)C(=O)OCc1ccccc1", "N"),
]

Reference for the values: patent US5385918A
